Tested on: BDF1 mice, P388 leukemia ip, median survival T/C
Experiment: NCI In Vivo Anticancer Drug Screen. Data for tumor model P388 Leukemia (intraperitoneal) in B6D2F1 (BDF1) mice
Details: endpoint: median survival time; dose: 400.0 mg/kg/injection; schedule: Q01DX009 (ip); vehicle: Klucel (hydroxypropylcellulose) (HPC); higher = longer survival
Inconclusive results and toxic doses are left out.
experimental-readout: T/C

For the compound shown here, O=C(c1ccccc1)C(Br)C(Br)C(=O)c1ccccc1 (configuration not stated) , give the reported T/C. 95 % of control

For the compound shown here, COc1c(C)cc(Br)c2c1C(CCN(C)S(=O)(=O)Cc1ccccc1)CCC2 (configuration not stated) , give the reported T/C. 110 % of control

For the compound shown here, C[C@@H]1CC2=CC(=O)C=C[C@]2(C)[C@H]2CC[C@@]3(C)[C@@H](CC[C@]3(C)O)[C@H]12 , give the reported T/C. 88 % of control

For the compound shown here, COc1ccc(/C=C(\CC(=O)O)C(=O)O)cc1OC , give the reported T/C. 95 % of control

For the compound shown here, CC(=O)OCC(=O)[C@@]1(O)CC[C@H]2[C@@H]3CCC4=CC(=O)[C@H](C)C[C@]4(C)[C@H]3[C@@H](O)C[C@@]21C , give the reported T/C. 118 % of control

For the compound shown here, O=C1OC(c2ccccc2)(c2ccccc2)c2ccccc21 , give the reported T/C. 86 % of control

For the compound shown here, Clc1cccc(Cl)c1Br , give the reported T/C. 90 % of control

For the compound shown here, O=C(/C=C/C(=O)Oc1ccccc1)Oc1ccccc1 , give the reported T/C. 90 % of control

For the compound shown here, COc1ccccc1/C=C/c1ccnc2ccccc12 , give the reported T/C. 122 % of control

For the compound shown here, CCC(C#N)(c1ccccc1)c1ccccc1 , give the reported T/C. 100 % of control

For the compound shown here, O=C(OCC#CC#CCOC(=O)c1cccc2ccccc12)c1cccc2ccccc12 , give the reported T/C. 105 % of control

For the compound shown here, CCOC(=O)/C(C#N)=C/c1ccc(O)c(OC)c1 , give the reported T/C. 95 % of control

For the compound shown here, Cc1cc(C)c(S(=O)(=O)ON=C2c3ccccc3-c3ccccc32)c(C)c1 , give the reported T/C. 110 % of control

For the compound shown here, COc1ccc(C)cc1CN1NC(=O)CC1=N , give the reported T/C. 100 % of control

For the compound shown here, O=CNc1c(Cl)c(Cl)c2c(c1Cl)Cc1cc(Cl)ccc1-2 , give the reported T/C. 105 % of control

For the compound shown here, CCOC(=O)C1(C(=O)O)CC2C(C)C=CC(C)C2C1 (configuration not stated) , give the reported T/C. 100 % of control

For the compound shown here, O=[N+]([O-])c1c(Cl)cccc1-c1c[nH]cc1Cl , give the reported T/C. 86 % of control

For the compound shown here, Nc1ncnc2c1ncn2C1(CO)OC(CO)C(O)C1O (configuration not stated) , give the reported T/C. 103 % of control

For the compound shown here, CCOC(=O)c1cnc(SC)nc1NCc1ccccc1Cl , give the reported T/C. 100 % of control

For the compound shown here, COc1cccc(C(=O)O)c1OS(=O)(=O)c1ccccc1 , give the reported T/C. 90 % of control

For the compound shown here, COC(=O)CCN(c1ccccc1)S(=O)(=O)c1ccc(C)cc1 , give the reported T/C. 95 % of control

For the compound shown here, O=C(O)c1ccc(NS(=O)(=O)Cc2ccccc2)cc1 , give the reported T/C. 123 % of control
